- Target Entity: neuronal nicotinic cholinergic channel receptors (Rattus norvegicus, UniProt P09483+P12390)
- Construct: crude synaptic membrane preparations from whole rat brain; from tissue; host or cells: whole rat brain, crude synaptic membranes
- Sequence (P09483 31-630): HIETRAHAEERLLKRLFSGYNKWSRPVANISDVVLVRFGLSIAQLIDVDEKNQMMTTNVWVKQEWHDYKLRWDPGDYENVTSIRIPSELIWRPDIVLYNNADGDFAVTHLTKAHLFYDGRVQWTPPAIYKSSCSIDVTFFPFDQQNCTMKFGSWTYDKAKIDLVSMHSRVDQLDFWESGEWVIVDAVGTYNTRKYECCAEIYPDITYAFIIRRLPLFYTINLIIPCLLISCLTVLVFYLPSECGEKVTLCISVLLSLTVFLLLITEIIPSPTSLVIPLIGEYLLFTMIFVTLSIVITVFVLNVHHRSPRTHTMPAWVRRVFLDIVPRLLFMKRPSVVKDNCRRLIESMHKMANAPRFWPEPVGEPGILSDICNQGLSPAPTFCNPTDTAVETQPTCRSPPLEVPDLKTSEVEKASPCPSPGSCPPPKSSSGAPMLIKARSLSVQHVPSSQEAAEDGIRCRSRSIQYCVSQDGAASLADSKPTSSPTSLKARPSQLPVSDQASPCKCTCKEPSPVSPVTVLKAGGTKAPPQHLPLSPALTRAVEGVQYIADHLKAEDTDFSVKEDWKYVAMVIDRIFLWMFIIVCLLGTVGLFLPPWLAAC
- Sequence (P12390 25-500): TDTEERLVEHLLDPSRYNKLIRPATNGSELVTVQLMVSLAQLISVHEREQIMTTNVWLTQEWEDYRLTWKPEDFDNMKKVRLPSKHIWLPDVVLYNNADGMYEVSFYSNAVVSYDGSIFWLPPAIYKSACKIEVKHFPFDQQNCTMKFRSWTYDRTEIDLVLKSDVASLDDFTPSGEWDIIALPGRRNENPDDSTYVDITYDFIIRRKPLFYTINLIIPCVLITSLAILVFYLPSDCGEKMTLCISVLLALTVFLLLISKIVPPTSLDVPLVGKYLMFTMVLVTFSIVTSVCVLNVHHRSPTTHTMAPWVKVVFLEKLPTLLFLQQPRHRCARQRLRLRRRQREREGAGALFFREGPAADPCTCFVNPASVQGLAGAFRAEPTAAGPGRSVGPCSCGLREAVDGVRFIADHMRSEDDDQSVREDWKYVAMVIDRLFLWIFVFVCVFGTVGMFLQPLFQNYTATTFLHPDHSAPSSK
- Experimental Protocol: [3H]-cytisine radioligand displacement binding (Protocol A)
- Test Context: displacement of [3H]-CYT (1.25 nM), crude synaptic membranes from whole rat brain; IC50 converted to Ki (Cheng and Prusoff); read-out: Binding
- Description: Binding of [^3H]-cytisine ([^3H]-CYT) to nicotinic receptors was accomplished using crude synaptic membrane preparations from whole rat brain (Pabreza et al., Molecular Pharmacol., 1990, 39:9). Washed membranes were stored at -80°C prior to use. […] The filters are counted in 4 mL of Ecolume® (ICN). […] Alternately, data were expressed as a percentage of the total specific binding.
Structures can show the parent of a compound that is named as a salt.
Endpoint: Ki (nM)

Cl.Clc1cc(OC[C@@H]2CCCN2)cnc1Cl [Example 11, hydrochloride]	0.029
CN1CC[C@H]1COc1cnc(Cl)c(Cl)c1.Cl [Example 16, hydrochloride]	0.7
CN1CC[C@@H]1COc1cnc(Cl)c(Cl)c1.Cl [Example 18, hydrochloride]	2.4
CCc1cc(OC[C@H]2CCCN2)cnc1Cl.Cl [Example 48, hydrochloride]	0.027
Cl.N#Cc1cc(OC[C@@H]2CCN2)cnc1Cl [Example 49, hydrochloride]	0.097
Cl.Clc1cc(OC[C@H]2CCCN2)cnc1Cl [Example 9, hydrochloride]	0.03
NC(=O)c1cc(OC[C@@H]2CCN2)cnc1Cl [Example 51, hydrochloride]	0.19
CN1CCC[C@@H]1COc1cnc(Cl)c(Cl)c1.Cl [Example 10, hydrochloride]	20
CN1CC[C@H]1COc1cnc(Cl)c(Br)c1.Cl [Example 3, hydrochloride]	0.38
